pKd values by entry
TEST_TARGET: human Fc region manufactured by Jackson ImmunoResearch Laboratories, Inc. (human)
MEASUREMENT_NOTES: SPR, Fc immobilized, 25 C
Please keep in mind that pKd is minus log10 of the molar concentration; only the number is needed.

RSSIAYGGG [polypeptide RSS]	3.96

Consider now this further binder.
Looking up GVVRQWSGGGGSGGGGRSSIAYGGG [polypeptide 2A1Gly] , I found its pKd recorded as 4.64

The values you see were collected from patent US20150353608A1.
